Attribution: patent US8815902B2

target: acetylcholine muscarinic M1 receptor (hM1) (Homo sapiens); construct: expressed in transfected cells; host or cells: CHOnfat cells (CHO, NFAT reporter background), Geneticin-selected; b186 also calls them CHOK1/hM1; assay: muscarinic FLIPR assay: intracellular calcium in CHOnfat/hM1 cells, potentiation of EC20 acetylcholine; assay type: cell-based; conditions: Table 2, EC20 acetylcholine (3 nM final), read-out: M1 IP (inflection point)
Sequence (P11229 whole entry): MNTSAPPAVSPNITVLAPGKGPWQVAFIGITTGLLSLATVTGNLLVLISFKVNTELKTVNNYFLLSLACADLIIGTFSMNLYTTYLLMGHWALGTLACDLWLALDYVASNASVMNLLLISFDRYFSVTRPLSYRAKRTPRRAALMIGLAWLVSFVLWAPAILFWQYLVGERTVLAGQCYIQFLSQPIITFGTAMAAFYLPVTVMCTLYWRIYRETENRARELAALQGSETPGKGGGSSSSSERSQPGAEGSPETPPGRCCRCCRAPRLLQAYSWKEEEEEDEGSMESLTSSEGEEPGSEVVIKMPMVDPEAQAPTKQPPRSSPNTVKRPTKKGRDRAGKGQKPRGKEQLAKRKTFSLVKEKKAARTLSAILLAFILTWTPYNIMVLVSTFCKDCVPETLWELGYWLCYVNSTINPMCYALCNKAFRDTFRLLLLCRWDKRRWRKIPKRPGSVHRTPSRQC
VALUE TYPE: EC50 (nM)
Enter your answer as a number in nM; do not include the unit.

CHEMICAL STRING: O=C(N[C@H]1CCOC[C@@H]1O)c1cc(Cc2ccc(Cl)nc2)c2c(n1)CCCC2
MEASUREMENT UNITS: nM
EC50: 102

Task: # EC50 lookup, item `CSc1ccc(Cc2cc(C(=O)N[C@H]3CCCC[C@@H]3O)nc3c2CCCC3)cn1`
Output: 88

Task: Continue with `O=C(N[C@H]1CCOC[C@@H]1O)c1cc(Cc2ccc(-c3cnccn3)nc2)c2c(n1)CCCC2`
Output: 115

Task: Continue with `COc1ccc(Cc2cc(C(=O)N[C@H]3CCOC[C@@H]3O)nc3c2CCCC3)cn1`
Output: 98
